Origin of values: PubChem BioAssay AID1963427

# Test system: 317291-083-R-J1-PDC complex spheroid growth;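 further: compound exposure lasted seven days after spheroids formed for three days; 100% = DMSO vehicle control wells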
# Experimental Details: Anticancer human tumor 317291-083-R-J1-PDC patient-derived soft tissue sarcoma cell line growth inhibition [Asc]
# Condition Context: second compound 1 µM; first compound 0.1 µM; stronger effect = lower value
Catalogue of compounds with associated viability, T/C

Given the entry O=C(c1cc(Cc2n[nH]c(=O)c3ccccc23)ccc1F)N1CCN(C(=O)C2CC2)CC1 + Cc1c(S(C)(=O)=O)c(-c2cc(F)cc(N3CCN(c4ccc(NS(=O)(=O)c5ccc(NC(CCN6CCC(C(=O)OCCCP(=O)(O)O)CC6)CSc6ccccc6)c(S(=O)(=O)C(F)(F)F)c5)cc4)CC3)c2)c(-c2ccc(Cl)cc2)n1C(C)C , report its measured viability, T/C.
98.6%

Give its viability, T/C value. Item: CCN1CCN(Cc2ccc(Nc3ncc(F)c(-c4cc(F)c5nc(C)n(C(C)C)c5c4)n3)nc2)CC1 + CNC(C)C(=O)NC1CN(S(=O)(=O)c2cccc(S(=O)(=O)N3CCC4CCC(C(=O)NC(c5ccccc5)c5ccccc5)N4C(=O)C(NC(=O)C(C)NC)C3)c2)CCC2CCC(C(=O)NC(c3ccccc3)c3ccccc3)N2C1=O
31.4%

Reported viability, T/C for C=C(F)C(=O)N1CCN(c2nc(OCC3CCCN3C)nc3c2CCN(c2cccc4cccc(Cl)c24)C3)CC1CC#N (stereo not drawn) + Cc1c(S(C)(=O)=O)c(-c2cc(F)cc(N3CCN(c4ccc(NS(=O)(=O)c5ccc(NC(CCN6CCC(C(=O)OCCCP(=O)(O)O)CC6)CSc6ccccc6)c(S(=O)(=O)C(F)(F)F)c5)cc4)CC3)c2)c(-c2ccc(Cl)cc2)n1C(C)C : what is it?
72.9%
